Data provenance is paper PMC7534258.

# Tested on: S. aureus ATCC 25923
# method.summary: microbe, parasite or virus in culture
# condition: Staphylococcus aureus, ATCC25923, read-out: Antimicrobial activity (MIC) S. aureus ATCC 25923
observation.type: MIC (µg/mL)

A: NC[C@H]1O[C@H](O[C@H]2[C@H](O)[C@@H](O[C@H]3O[C@H](CO)[C@@H](O)[C@H](N)[C@H]3O)[C@H](N)C[C@@H]2N)[C@H](N)C[C@@H]1O [Tobramycin]
B: C[C@@H](O)[C@H]1C(=O)N2C(C(=O)O)=C(SCCN=CN)C[C@H]12 [Imipenem]
Query block: Choose between A and B : whose measured MIC value is numerically larger? Kindly give the label for the entry you pick.
Result block: A

---

# Test system: Sa2
# method.summary: microbe, parasite or virus in culture
# condition: Staphylococcus aureus, MRSA, read-out: Antimicrobial activity (MIC) Sa2
observation.type: MIC

Illustrative cases are given below, each with its answer.
>>> value_reported("CN[C@H](CC(C)C)C(=O)N[C@H]1C(=O)N[C@@H](CC(N)=O)C(=O)N[C@H]2C(=O)N[C@H]3C(=O)N[C@H](C(=O)N[C@H](C(=O)O)c4cc(O)cc(O)c4-c4cc3ccc4O)[C@H](O)c3ccc(c(Cl)c3)Oc3cc2cc(c3O[C@@H]2O[C@H](CO)[C@@H](O)[C@H](O)[C@H]2O[C@H]2C[C@](C)(N)[C@H](O)[C@H](C)O2)Oc2ccc(cc2Cl)[C@H]1O")
"1 µg/mL"
>>> value_reported("C[C@@H](O)[C@H]1C(=O)N2C(C(=O)O)=C(SCCN=CN)C[C@H]12")
"> 8 µg/mL"
>>> value_reported("NC[C@H]1O[C@H](O[C@H]2[C@H](O)[C@@H](O[C@H]3O[C@H](CO)[C@@H](O)[C@H](N)[C@H]3O)[C@H](N)C[C@@H]2N)[C@H](N)C[C@@H]1O")
"< 1 µg/mL"

Here is the next item to consider.
Query block: What value of MIC has been reported for the following compound? CNC(C)C1CCC(N)C(OC2C(N)CC(N)C(OC3OCC(C)(O)C(NC)C3O)C2O)O1 (stereo not shown)
Result block: < 1 µg/mL
